# Tested on: Japanese medaka (Oryzias latipes)
# method: Fish Short‐Term Reproduction Assay
# Assay type: in vivo
# applied-conditions: 21 d
attribute-measured: Change of hepatic VTG levels in females (in words)

molecule: O=C1NC(=O)C(c2ccccc2)(c2ccccc2)N1 [PHT, Phenitoin, reference compound]
val: did not reduce
//
molecule: CCCOC(=O)c1ccc(O)cc1 [PPB, 4‐Hydroxybenzoate propyl]
val: significant increase
//
molecule: CCNc1nc(Cl)nc(NC(C)(C)C#N)n1 [CZ, Cyanazine]
val: did not reduce
//
molecule: CCC(C)(C)c1ccc(O)cc1 [Chemical 4tPP, 4‐tert‐Pentylphenol]
val: significant increase
//
molecule: Oc1cc(Cl)ccc1Oc1ccc(Cl)cc1Cl [TCS, Triclosan]
val: significant increase

----------
# Tested on: Japanese medaka (Oryzias latipes)
# method: Fish Short‐Term Reproduction Assay
# Type: in vivo
# applied-conditions: Oryzias latipes, 504 h, read-out: LOECmVTG
attribute-measured: minimal effective concentration (µg/mL)

compound: CCC(CC)Nc1c([N+](=O)[O-])cc(C)c(C)c1[N+](=O)[O-] [PDM, Pendimethalin]
target-or-system: Japanese medaka (Oryzias latipes)
unit-name: µg/mL
comparison-sign: =
val: 0.1
//
compound: CCCOC(=O)c1ccc(O)cc1 [PPB, 4‐Hydroxybenzoate propyl]
target-or-system: Japanese medaka (Oryzias latipes)
unit-name: µg/mL
comparison-sign: =
val: 0.311
//
compound: CCC(C)(C)c1ccc(O)cc1 [Chemical 4tPP, 4‐tert‐Pentylphenol]
target-or-system: Japanese medaka (Oryzias latipes)
unit-name: µg/mL
comparison-sign: =
val: 0.0584
//
compound: C[C@]12CC[C@@H]3c4ccc(O)cc4CC[C@H]3[C@@H]1CCC2=O [Chemical E1, Estrone]
target-or-system: Japanese medaka (Oryzias latipes)
unit-name: µg/mL
comparison-sign: =
val: 0.000272
//
compound: Oc1cc(Cl)ccc1Oc1ccc(Cl)cc1Cl [TCS, Triclosan]
target-or-system: Japanese medaka (Oryzias latipes)
unit-name: µg/mL
comparison-sign: >
val: 0.353
//
compound: CC(C)(c1ccc(O)cc1)c1ccc(O)cc1 [BPA, Bisphenol A]
target-or-system: Japanese medaka (Oryzias latipes)
unit-name: µg/mL
comparison-sign: =
val: 4.67
//
compound: CC(C)COC(=O)c1ccccc1C(=O)OCC(C)C [DIBP, Diisobutyl phthalate]
target-or-system: Japanese medaka (Oryzias latipes)
unit-name: µg/mL
comparison-sign: >
val: 0.836
//
compound: CC(C)(C)CC(C)(C)c1ccc(O)cc1 [Chemical 4tOP, 4‐tert‐Octylphenol]
target-or-system: Japanese medaka (Oryzias latipes)
unit-name: µg/mL
comparison-sign: =
val: 0.0823
//
compound: CC(C)C(C(=O)OC(C#N)c1cccc(Oc2ccccc2)c1)c1ccc(Cl)cc1 (centres unmarked) [FV, Fenvalerate]
target-or-system: Japanese medaka (Oryzias latipes)
unit-name: µg/mL
comparison-sign: >
val: 0.0013
//
compound: CCNc1nc(Cl)nc(NC(C)(C)C#N)n1 [CZ, Cyanazine]
target-or-system: Japanese medaka (Oryzias latipes)
unit-name: µg/mL
comparison-sign: >
val: 1.02
//
compound: COC(=O)c1ccc(O)cc1 [MPB, 4‐Hydroxybenzoate methyl]
target-or-system: Japanese medaka (Oryzias latipes)
unit-name: µg/mL
comparison-sign: =
val: 1.9

----------
# target-or-system: medaka ARβ (mArβ) (Oryzias latipes, UniProt D1MV73)
# Sequence (D1MV73 1-744): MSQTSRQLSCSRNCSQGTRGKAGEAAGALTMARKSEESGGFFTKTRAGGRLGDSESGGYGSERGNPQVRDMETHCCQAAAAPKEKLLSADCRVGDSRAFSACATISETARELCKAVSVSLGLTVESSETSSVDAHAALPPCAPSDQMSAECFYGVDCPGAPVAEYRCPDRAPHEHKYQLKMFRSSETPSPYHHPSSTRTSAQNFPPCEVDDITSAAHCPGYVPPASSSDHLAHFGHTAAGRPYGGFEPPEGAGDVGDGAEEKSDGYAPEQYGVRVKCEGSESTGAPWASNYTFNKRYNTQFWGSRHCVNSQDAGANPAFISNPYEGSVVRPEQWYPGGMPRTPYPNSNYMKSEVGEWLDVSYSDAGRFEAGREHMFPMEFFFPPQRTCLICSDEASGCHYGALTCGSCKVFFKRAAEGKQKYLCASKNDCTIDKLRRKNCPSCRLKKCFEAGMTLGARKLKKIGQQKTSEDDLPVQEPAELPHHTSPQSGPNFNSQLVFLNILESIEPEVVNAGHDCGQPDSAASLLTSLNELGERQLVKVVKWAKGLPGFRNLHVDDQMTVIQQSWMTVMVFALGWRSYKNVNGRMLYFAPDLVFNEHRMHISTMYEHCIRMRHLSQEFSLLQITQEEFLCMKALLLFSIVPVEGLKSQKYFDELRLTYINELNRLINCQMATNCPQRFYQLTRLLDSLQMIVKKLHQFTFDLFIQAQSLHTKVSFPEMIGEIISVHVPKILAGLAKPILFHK
# method: Medaka ARβ reporter gene assay, antagonist assay
# Format: cell-based, Japanese medaka (Oryzias latipes)
# applied-conditions: mode of action in which IC50 or IC30 was obtained in RGA
attribute-measured: In vitro positive: aAr

molecule: C[C@]12CC[C@@H]3c4ccc(O)cc4CC[C@H]3[C@@H]1CCC2=O [Chemical E1, Estrone]
target-or-system: medaka ARβ (mArβ) (Oryzias latipes, UniProt D1MV73)
attribute-measured: In vitro positive: aAr
val: aAr

molecule: CC(C)(c1ccc(O)cc1)c1ccc(O)cc1
target-or-system: medaka ARβ (mArβ) (Oryzias latipes, UniProt D1MV73)
attribute-measured: In vitro positive: aAr
val: aAr

molecule: CCC(C)(C)c1ccc(O)cc1
target-or-system: medaka ARβ (mArβ) (Oryzias latipes, UniProt D1MV73)
attribute-measured: In vitro positive: aAr
val: aAr

molecule: O=C(c1ccc(O)cc1O)c1ccc(O)cc1O
target-or-system: medaka ARβ (mArβ) (Oryzias latipes, UniProt D1MV73)
attribute-measured: In vitro positive: aAr
val: aAr

molecule: CCC(CC)Nc1c([N+](=O)[O-])cc(C)c(C)c1[N+](=O)[O-]
target-or-system: medaka ARβ (mArβ) (Oryzias latipes, UniProt D1MV73)
attribute-measured: In vitro positive: aAr
val: aAr

----------
# Tested on: Japanese medaka (Oryzias latipes)
# method: Fish Short‐Term Reproduction Assay
# Format: in vivo
# applied-conditions: concentrations without overt toxicity
LOECREPRO (reduction in fecundity or fertility) values by entry
attribute-measured: LOECREPRO (reduction in fecundity or fertility)

molecule: COC(=O)c1ccc(O)cc1 [MPB, 4‐Hydroxybenzoate methyl]
val: 9,750 μg/L

molecule: O=C(c1ccc(O)cc1O)c1ccc(O)cc1O
val: 9,530 μg/L

molecule: CCNc1nc(Cl)nc(NC(C)(C)C#N)n1
val: 1,020 μg/L

molecule: CCC(CC)Nc1c([N+](=O)[O-])cc(C)c(C)c1[N+](=O)[O-]
val: 100 µg/L

----------
Measured pEC50 accompanies every entry in the list below.
# target-or-system: medaka Esr1 (mEsr1) (Oryzias latipes, UniProt P50241)
# Sequence (P50241 whole entry): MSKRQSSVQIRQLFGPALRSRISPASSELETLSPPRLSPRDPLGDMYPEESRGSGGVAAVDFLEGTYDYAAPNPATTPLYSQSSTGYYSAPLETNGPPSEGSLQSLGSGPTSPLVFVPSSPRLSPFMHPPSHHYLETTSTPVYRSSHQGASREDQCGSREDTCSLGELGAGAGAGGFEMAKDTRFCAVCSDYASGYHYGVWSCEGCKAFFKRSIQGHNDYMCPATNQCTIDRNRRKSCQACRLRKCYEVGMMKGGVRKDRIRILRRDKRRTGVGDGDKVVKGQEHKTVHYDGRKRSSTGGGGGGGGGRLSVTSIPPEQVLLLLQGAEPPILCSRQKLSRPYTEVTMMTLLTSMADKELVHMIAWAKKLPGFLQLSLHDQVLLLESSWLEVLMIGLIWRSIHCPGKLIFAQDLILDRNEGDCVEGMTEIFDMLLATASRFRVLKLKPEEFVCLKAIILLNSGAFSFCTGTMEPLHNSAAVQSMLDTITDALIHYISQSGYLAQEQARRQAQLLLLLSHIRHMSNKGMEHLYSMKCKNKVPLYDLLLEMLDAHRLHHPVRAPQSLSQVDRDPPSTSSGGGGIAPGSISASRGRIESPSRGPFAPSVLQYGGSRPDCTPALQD
# method: cell-based
# Parameters: species or system Japanese medaka (Oryzias latipes)
pEC50: −log10 of the molar value.
attribute-measured: pEC50

compound: O=P(Oc1ccccc1)(Oc1ccccc1)Oc1ccccc1 [TPP, Triphenyl phosphate]
target-or-system: medaka Esr1 (mEsr1) (Oryzias latipes, UniProt P50241)
attribute-measured: pEC50
val: 5.01
--
compound: CC(C)C(C(=O)OC(C#N)c1cccc(Oc2ccccc2)c1)c1ccc(Cl)cc1 (stereo not shown) [FV, Fenvalerate]
target-or-system: medaka Esr1 (mEsr1) (Oryzias latipes, UniProt P50241)
attribute-measured: pEC50
val: 5.62
--
compound: CCC(CC)Nc1c([N+](=O)[O-])cc(C)c(C)c1[N+](=O)[O-] [PDM, Pendimethalin]
target-or-system: medaka Esr1 (mEsr1) (Oryzias latipes, UniProt P50241)
attribute-measured: pEC50
val: 5.48
--
compound: C[C@]12CC[C@@H]3c4ccc(O)cc4CC[C@H]3[C@@H]1CCC2=O [Chemical E1, Estrone]
target-or-system: medaka Esr1 (mEsr1) (Oryzias latipes, UniProt P50241)
attribute-measured: pEC50
val: 8.27
